- procedure.summary: Intrinsic clearance in CD-1 mouse liver microsomes at 0.1 uM by LC-MS/MS analysis in absence of NADPH
- Assay type: ADME
- condition.set: read-out: CLH
test.readout: microsomal CLint at 0.1 µM (µL/min/mg)
Respond numerically; units are µL/min/mg and should not be typed.

Lab note: "CC(C)NC(=O)[C@H]1CC[C@@H](n2/c(=N/C(=O)c3ccc(F)cc3)[nH]c3ccc(CN4CCC(C(C)(C)O)CC4)cc32)CC1" gave microsomal CLint at 0.1 µM of 805

----------
Vmax(app): recorded values
- Tested on: Plasma
- procedure.summary: Drug metabolism in CD-1 mouse plasma assessed as hydrolysis metabolite formation rate by LC-MS/MS analysis
- Format: ADME, cell-free
Respond numerically; units are pmol/min/mL and should not be typed.

Worked examples follow.
{"columns": ["chemical.string", "measurement.target", "units.symbol", "number"],
 "data": [
  ["CC(C)NC(=O)[C@H]1CC[C@@H](n2/c(=N/C(=O)c3ccc(F)cc3)[nH]c3ccc(CN4CCC(C(C)(C)O)CC4)cc32)CC1", "Plasma", "pmol/min/mL", 19.7],
  ["CC(C)NC(=O)[C@H]1CC[C@@H](n2/c(=N/C(=O)c3cc(F)cc(F)c3)[nH]c3ccc(CN4CCC(C(C)(C)O)CC4)cc32)CC1", "Plasma", "pmol/min/mL", 3.81],
  ["CC(C)NC(=O)[C@H]1CC[C@@H](n2/c(=N/C(=O)c3cccc(C(F)(F)F)c3)[nH]c3ccc(CN4CCC(C(C)(C)O)CC4)cc32)CC1", "Plasma", "pmol/min/mL", 1.14]
]}

API: the following record is the query input.
Lab note: "CC(C)NC(=O)[C@H]1CC[C@@H](n2/c(=N/C(=O)c3cc(F)cc(Cl)c3)[nH]c3ccc(CN4CCC(C(C)(C)O)CC4)cc32)CC1" gave Vmax(app) of 0.305

----------
- procedure.summary: Volume of distribution at steady state in CD-1 mouse at 2 mg/kg, iv administered as single bolus dose by LC-MS/MS analysis
- Assay type: ADME, organism-based
- Design: dose 2 mg/kg, route intravenous
- condition.set: in vivo, read-out: Vdss
Vd: recorded values
Respond numerically; units are L/kg and should not be typed.

Worked examples follow.
{"columns": ["chemical.string", "Vd, L/kg"],
 "data": [
  ["CC(C)NC(=O)[C@H]1CC[C@@H](n2/c(=N/C(=O)c3cc(F)cc(Cl)c3)[nH]c3ccc(CN4CCC(C(C)(C)O)CC4)cc32)CC1", 5.47],
  ["CC(C)NC(=O)[C@H]1CC[C@@H](n2/c(=N/C(=O)c3cccc(C(F)(F)F)c3)[nH]c3ccc(CN4CCC(C(C)(C)O)CC4)cc32)CC1", 7.78],
  ["CC(C)NC(=O)[C@H]1CC[C@@H](n2/c(=N/C(=O)c3cc(F)cc(F)c3)[nH]c3ccc(CN4CCC(C(C)(C)O)CC4)cc32)CC1", 4.49]
]}

API: the following record is the query input.
Lab note: "CC(C)NC(=O)[C@H]1CC[C@@H](n2/c(=N/C(=O)c3ccc(F)cc3)[nH]c3ccc(CN4CCC(C(C)(C)O)CC4)cc32)CC1" gave Vd of 2.62

----------
- procedure.summary: Plasma clearance in CD-1 mouse at 2 mg/kg, iv administered as single bolus dose by LC-MS/MS analysis
- Format: ADME, organism-based
- Set-up: dose 2 mg/kg, route intravenous
test.readout: clearance

{"columns": ["chemical.string", "clearance"],
 "data": [
  ["CC(C)NC(=O)[C@H]1CC[C@@H](n2/c(=N/C(=O)c3cc(F)cc(F)c3)[nH]c3ccc(CN4CCC(C(C)(C)O)CC4)cc32)CC1", "58.5 mL/min/kg"],
  ["CC(C)NC(=O)[C@H]1CC[C@@H](n2/c(=N/C(=O)c3cc(F)cc(Cl)c3)[nH]c3ccc(CN4CCC(C(C)(C)O)CC4)cc32)CC1", "35.7 mL/min/kg"],
  ["CC(C)NC(=O)[C@H]1CC[C@@H](n2/c(=N/C(=O)c3ccc(F)cc3)[nH]c3ccc(CN4CCC(C(C)(C)O)CC4)cc32)CC1", "92 mL/min/kg"]
]}

API: the following record is the query input.
Lab note: "CC(C)NC(=O)[C@H]1CC[C@@H](n2/c(=N/C(=O)c3cccc(C(F)(F)F)c3)[nH]c3ccc(CN4CCC(C(C)(C)O)CC4)cc32)CC1" gave clearance of 44.3 mL/min/kg
